I'd appreciate it if you could supply pIC50 values for the items below.
Target: Human M4 (Homo sapiens)
Sequence (P08173 1-479): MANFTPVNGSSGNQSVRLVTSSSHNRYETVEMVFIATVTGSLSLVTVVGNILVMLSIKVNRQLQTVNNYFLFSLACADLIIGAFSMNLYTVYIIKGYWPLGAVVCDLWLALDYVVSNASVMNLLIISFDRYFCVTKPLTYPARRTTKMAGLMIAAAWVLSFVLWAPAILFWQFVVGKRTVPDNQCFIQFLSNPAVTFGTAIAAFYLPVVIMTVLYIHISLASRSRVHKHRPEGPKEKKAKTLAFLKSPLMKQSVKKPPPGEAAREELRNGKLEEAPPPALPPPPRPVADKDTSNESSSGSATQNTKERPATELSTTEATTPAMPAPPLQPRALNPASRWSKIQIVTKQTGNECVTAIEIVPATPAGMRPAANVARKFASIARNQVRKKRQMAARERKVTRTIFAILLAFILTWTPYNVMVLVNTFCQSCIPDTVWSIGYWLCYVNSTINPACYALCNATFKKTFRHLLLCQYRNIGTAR
Test: mAChR M4 cell-based functional assay (calcium flux, antagonism of EC80 acetylcholine response)
Settings: M4/Gqi5/CHO-K1 cells; concentration-dependent decrease of the response elicited by an EC80 concentration of acetylcholine
Bear in mind: pIC50 is minus log10 of a mol/L concentration; give just that figure.

Returns the measured pIC50 for the input molecule. Input: `[2H]C([2H])(C1CCOCC1)N1C[C@H]2C[C@H](Nc3ccc(-c4ccccc4C(=O)NCC)nn3)C[C@H]2C1` 6.77

Item under review: `[2H]C([2H])([2H])NC(=O)c1ccccc1-c1ccc(N[C@H]2C[C@@H]3CN(CC4CCOCC4)C[C@@H]3C2)nn1` . Reported pIC50? 6.68

Which value of pIC50 has been reported for `CC(=O)Nc1ccc(-c2ccc(N[C@H]3C[C@@H]4CN(Cc5ccc6c(c5)OCO6)C[C@@H]4C3)nn2)cc1` in the records? 9.72

Give the measured pIC50 of `[2H]C([2H])([2H])C(=O)Nc1ccccc1-c1ccc(N[C@H]2C[C@@H]3CN(CC4CCOCC4)C[C@@H]3C2)nn1` . 6.92

* * *

Molecular target: Human M4 (Homo sapiens, UniProt P08173)
Construct: expressed in transfected cells; host or cells: CHO-K1 (ATCC), co-transfected with chimeric G protein Gqi5
Assay: mAChR M4 cell-based functional assay (calcium flux, antagonism of EC80 acetylcholine response)
Conditions: M4/Gqi5/CHO-K1 cells; % ACh maximum at 30 μM; read-out: Human M4 Emin (% ACh maximum at 30 μM)
REPORTED_ENDPOINT: remaining activity at 30 µM (%)
All answers are understood in %, so give the number only.

Which remaining activity at 30 µM reading was recorded for the compound `[2H]C([2H])(C1CCOCC1)N1C[C@H]2C[C@H](Nc3ccc(-c4ccc(NC(=O)C5CC5)cc4)nn3)C[C@H]2C1` ? 4

For the compound shown here, `O=C(Nc1cc(F)c(F)c(-c2ccc(N[C@H]3C[C@@H]4CN(CC5CCOCC5)C[C@@H]4C3)nn2)c1)C1(O)CCC1` , give the reported remaining activity at 30 µM. 4

// remaining activity at 30 µM lookup, key: [2H]C([2H])([2H])NC(=O)c1cccc(-c2ccc(N[C@H]3C[C@@H]4CN(CC5CCOCC5)C[C@@H]4C3)nn2)c1 (single isomer, unassigned) 4

Please give the measured remaining activity at 30 µM for this compound: `CCC(=O)Nc1ccccc1-c1ccc(N[C@H]2C[C@@H]3CN(CC4CCOCC4)C[C@@H]3C2)nn1` 4

For `CCC(=O)Nc1cccc(-c2ccc(N[C@H]3C[C@@H]4CN(CC5CCOCC5)C[C@@H]4C3)nn2)c1` , what is its reported remaining activity at 30 µM? 4

* * *

Molecular target: UniProt P08173
Experiment: mAChR M4 cell-based functional assay (calcium flux, antagonism of EC80 acetylcholine response)
Details: M4/Gqi5/CHO-K1 cells; concentration-dependent decrease of the response elicited by an EC80 concentration of acetylcholine
REPORTED_ENDPOINT: pIC50
The value called pIC50 is obtained by taking minus log10 of the concentration in mol/L.

I would be grateful if you could share the reported pIC50 for [2H]C([2H])(C1CCOCC1)N1C[C@H]2C[C@H](Nc3ccc(-c4ccc(NC(C)=O)cc4)nn3)C[C@H]2C1 (single isomer, unassigned) [Compound B1] . 9.40

What pIC50 value was documented for this compound, [2H]C([2H])(C1CCOCC1)N1C[C@H]2C[C@H](Nc3ccc(-c4ccc(C(=O)NC)cc4)nn3)C[C@H]2C1 (single isomer, unassigned) [Compound A64] ? 7.80

Entry O=C(Nc1cc(F)c(F)c(-c2ccc(N[C@H]3C[C@@H]4CN(CC5CCOCC5)C[C@@H]4C3)nn2)c1)C1(C(F)(F)F)CC1 [Compound A11] has what pIC50? 7.18

Data request, read-out pIC50, for CNC(=O)c1ccccc1-c1ccc(N[C@H]2C[C@@H]3CN(CC4CCOCC4)C[C@@H]3C2)nn1 [Compound A45] 6.74

* * *

Biological target: Human M4 (Homo sapiens, UniProt P08173)
Construct: expressed in transfected cells; host or cells: CHO-K1 (ATCC), co-transfected with chimeric G protein Gqi5
Experiment: mAChR M4 cell-based functional assay (calcium flux, antagonism of EC80 acetylcholine response)
Conditions: M4/Gqi5/CHO-K1 cells; concentration-dependent decrease of the response elicited by an EC80 concentration of acetylcholine
Protocol: Human or rat M4 cDNA, along with the chimeric G protein Gqi5, were transfected into Chinese hamster ovary (CHO-K1) cells purchased from the American Type Culture Collection using Lipofectamine2000. […] Calcium flux was measured using the Functional Drug Screening System (FDSS) 6000 or 7000 (Hamamatsu Corporation, Tokyo, Japan) as an increase in the fluorescent static ratio. […] Agonist activity was analyzed as a concentration-dependent increase in calcium mobilization upon compound addition. […]
REPORTED_ENDPOINT: IC50 (nM)
Output spec: scalar in nM, unitless text.

Fill in: IC50 of `[2H]C([2H])(C1CCOCC1)N1C[C@H]2C[C@H](Nc3ccc(-c4cc(F)cc(C(=O)NC)c4)nn3)C[C@H]2C1` is ___ 14

For the molecule shown here, `CN(C)C(=O)c1cc(F)c(F)c(-c2ccc(N[C@H]3C[C@@H]4CN(CC5CCOCC5)C[C@@H]4C3)nn2)c1` , give the reported IC50. 440

Name the reported IC50 value associated with the molecule `NC(=O)c1ccc(-c2ccc(N[C@H]3C[C@@H]4CN(CC5CCOCC5)C[C@@H]4C3)nn2)c(F)c1` 5.1

Can you share its IC50? I mean this molecule: `CC(=O)Nc1ccc(-c2ccc(N[C@H]3C[C@@H]4CN(Cc5ccccc5F)C[C@@H]4C3)nn2)cc1` 62

Give its IC50 value. Item: `O=C(NC1CC1)c1ccc(-c2ccc(N[C@H]3C[C@@H]4CN(CC5CCOCC5)C[C@@H]4C3)nn2)cc1` 3.9

Which IC50 is reported for this molecule? `[2H]C([2H])(C1CCOCC1)N1C[C@H]2C[C@H](Nc3ccc(-c4cc(F)c(C(=O)NC)c(F)c4F)nn3)C[C@H]2C1` 16

Quick one: IC50 of `CN(C)C(=O)c1ccc(-c2ccc(N[C@H]3C[C@@H]4CN(CC5CCOCC5)C[C@@H]4C3)nn2)c(F)c1` ? 14
